target: Gal(b1-3)[Fuc(a1-4)]GlcNAc(b1-3)Gal(b1-3)[Fuc(a1-4)]GlcNAc; test: glycan array binding signal (z-score within array); higher = stronger binding; conditions: glycan notation: IUPAC condensed, linker removed
This is one part of a sample in which the strongest signals are shown more often than they occur.
Measured Quantity: glycan array binding signal (z-score)

INSERT INTO assay_data (binder, measured_quantity, endpoint_result) VALUES
  ('KISKRILTGKK [NK11 (Sus scrofa)]', 'glycan array binding signal (z-score)', -0.425),
  ('LBL-152 (Laetiporus bicolor), B0D650 (protein) MSNEYNPPLGIAFRLCGLASDRVLFSRVSPSPEVFHHPKSEVYPDQWFVAIPGSGQNAGCYAIKSKNTGKVLFSRMSPDPRVGHIDGDGKYPDNWFKFEAGSGKYAGYFRLRAVASDTVLVSRTSTGTDTQVINYPATSAKYDDQYFTILFDHHHHHH', 'glycan array binding signal (z-score)', -0.16),
  ('OVGAL11 (Ovis aries), AAF64320 (protein) MDSLPNPYLQSVSLTVCYMVKIKANLLSAFGKNPELQVDFGTGTGQGGNIPFRFWYCDGMVVMNTFTDGSWQKEEKVLTDAFVPGQPFELQFLVLEKEYQVFVKNKPICQFAHRLPLQSVKMLDVRGDIVLTSVDTL', 'glycan array binding signal (z-score)', -0.101),
  ('Mermaid3 (Stilbonema majum) (protein) MGSSHHHHHHSSGLVPRGSHMAASGWLRSPQGTVVKLYRRSLSWSKADEFCKDVDGRLVVDRTADMHLFLIKNVLKEKKSRVWVGLRRTASHSRTWIWSDGTRQNEGDLDANLWLRDEPNDAAGEEECALFMYSPWEKAWGLNDYLCRGGCRNYQFICEKWIR', 'glycan array binding signal (z-score)', -0.634);
